# TARGET ENTITY: V₂ receptor (Rattus norvegicus)
# Construct: Using rat kidney plasma membrane preparations
# Sequence (Q00788 whole entry): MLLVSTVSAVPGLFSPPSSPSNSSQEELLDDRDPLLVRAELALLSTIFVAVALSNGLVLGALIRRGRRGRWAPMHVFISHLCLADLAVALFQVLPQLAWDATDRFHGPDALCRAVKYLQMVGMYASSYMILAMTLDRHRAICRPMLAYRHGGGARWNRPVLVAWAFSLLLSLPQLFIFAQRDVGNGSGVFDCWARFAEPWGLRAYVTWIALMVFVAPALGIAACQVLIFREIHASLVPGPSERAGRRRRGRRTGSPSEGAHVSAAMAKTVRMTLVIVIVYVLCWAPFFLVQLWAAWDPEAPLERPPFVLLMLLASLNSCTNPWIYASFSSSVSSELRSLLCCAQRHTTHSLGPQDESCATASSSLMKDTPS
# TEST: V₂ receptor binding assay ([³H]-Arg-vasopressin, rat kidney plasma membrane preparations)
# EXPERIMENTAL SETUP: 4°C for 3 hours
pIC50: −log10 of the molar value.
VALUE KIND: pIC50

Consider the following illustrative entries.
// returns reported pIC50 for input NC(=O)COc1ccccc1C(=O)Nc1ccc(C(=O)N2CCCCc3ccccc32)cc1 [compound 119]
7.23

// returns reported pIC50 for input CCN(C)C1CCCN(C(=O)c2ccc(NC(=O)c3ccccc3Cl)cc2Cl)c2ccccc21 (centres unmarked) [compound 314]
7.02

// returns reported pIC50 for input Cc1ccccc1C(=O)Nc1ccc(C(=O)N2CCCC(OCC(=O)N3CC[S+]([O-])CC3)c3ccccc32)cc1 (centres unmarked) [compound 281]
7.96

// returns reported pIC50 for input CN1CCN(C2CCCN(C(=O)c3ccc(NC(=O)c4ccccc4Cl)cc3)c3ccccc32)CC1 (centres unmarked) [compound 206]
7.06

// returns reported pIC50 for input CN(C)C1CCCN(C(=O)c2ccc(NC(=O)c3cccc([N+](=O)[O-])c3)cc2)c2ccccc21 (centres unmarked) [compound 289]
7.15

A. COc1cccc(C(=O)Nc2ccc(C(=O)N3CCCCc4ccccc43)cc2)c1 [compound 29]
B. CCN(C)C1CCCN(C(=O)c2ccc(NC(=O)c3ccccc3C)cc2)c2ccccc21 (centres unmarked) [compound 228]
Kindly compare A with B and tell me which has the lower pIC50 figure. # reply format: chosen label
A
